Value source: patent US9370522B2

Listed next: entries and their corresponding IC50.
target: hPASK (Full Length) (Homo sapiens, UniProt Q96RG2)
Sequence (Q96RG2 whole entry): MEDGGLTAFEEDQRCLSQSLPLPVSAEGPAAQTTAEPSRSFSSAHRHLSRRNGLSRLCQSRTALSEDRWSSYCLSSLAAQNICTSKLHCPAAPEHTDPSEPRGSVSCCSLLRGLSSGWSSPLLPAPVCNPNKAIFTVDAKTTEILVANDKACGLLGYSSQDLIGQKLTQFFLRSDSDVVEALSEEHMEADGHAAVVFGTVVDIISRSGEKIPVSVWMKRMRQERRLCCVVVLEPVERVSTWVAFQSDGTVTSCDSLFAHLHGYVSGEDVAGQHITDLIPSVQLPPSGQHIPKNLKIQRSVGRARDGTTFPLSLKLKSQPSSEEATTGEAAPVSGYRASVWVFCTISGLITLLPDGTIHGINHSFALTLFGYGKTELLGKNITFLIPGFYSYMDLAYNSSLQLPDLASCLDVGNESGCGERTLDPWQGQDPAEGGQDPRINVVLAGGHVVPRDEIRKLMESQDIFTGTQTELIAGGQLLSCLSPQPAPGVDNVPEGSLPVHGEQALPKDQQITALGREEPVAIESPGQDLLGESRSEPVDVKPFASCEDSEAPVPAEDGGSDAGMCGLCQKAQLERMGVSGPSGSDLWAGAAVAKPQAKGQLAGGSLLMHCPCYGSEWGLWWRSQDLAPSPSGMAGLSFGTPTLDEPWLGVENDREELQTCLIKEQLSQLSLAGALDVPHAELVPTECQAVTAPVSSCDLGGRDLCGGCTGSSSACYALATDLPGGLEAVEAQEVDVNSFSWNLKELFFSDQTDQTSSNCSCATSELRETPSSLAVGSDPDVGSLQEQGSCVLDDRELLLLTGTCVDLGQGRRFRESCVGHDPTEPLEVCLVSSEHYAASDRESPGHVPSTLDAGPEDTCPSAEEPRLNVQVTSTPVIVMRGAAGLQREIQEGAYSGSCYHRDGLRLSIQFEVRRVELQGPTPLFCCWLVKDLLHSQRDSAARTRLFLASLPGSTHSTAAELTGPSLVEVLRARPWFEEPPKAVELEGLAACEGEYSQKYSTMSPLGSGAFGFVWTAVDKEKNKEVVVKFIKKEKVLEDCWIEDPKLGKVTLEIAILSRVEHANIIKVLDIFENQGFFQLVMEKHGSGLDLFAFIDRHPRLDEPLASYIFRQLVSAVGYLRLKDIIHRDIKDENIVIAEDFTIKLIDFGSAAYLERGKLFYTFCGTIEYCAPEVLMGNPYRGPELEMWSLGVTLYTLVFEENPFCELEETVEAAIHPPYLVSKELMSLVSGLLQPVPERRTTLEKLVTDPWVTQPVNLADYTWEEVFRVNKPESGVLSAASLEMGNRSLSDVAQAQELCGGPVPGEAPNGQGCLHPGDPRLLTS
measurement.name: IC50

{"smiles.input": "CCOc1ccc(-c2nc3ccc(C(=O)O)cc3nc2-c2ccc(OCC)cc2)cc1", "measurement.name": "IC50", "experimental.value": "≥ 10 µM"}
{"smiles.input": "O=C(O)c1cc2nc(-c3ccc4c(c3)OCO4)c(-c3ccc4c(c3)OCO4)nc2cc1O", "measurement.name": "IC50", "experimental.value": "≤ 10 µM"}
{"smiles.input": "O=C(O)c1ccc2nc(-c3ccccc3O)c(-c3ccccc3O)nc2c1", "measurement.name": "IC50", "experimental.value": "≤ 10 µM"}
{"smiles.input": "Cc1ccc(-c2nc3ccc(C(=O)O)cc3nc2-c2ccc(C)cc2)cc1", "measurement.name": "IC50", "experimental.value": "≤ 10 µM"}
{"smiles.input": "O=C(O)c1ccc2nc(-c3ccc(F)cc3)c(-c3ccc(F)cc3)nc2c1", "measurement.name": "IC50", "experimental.value": "≤ 10 µM"}
{"smiles.input": "COc1ccc(-c2nc3ccc(C(=O)O)cc3nc2-c2ccc(OC)c(OC)c2)cc1OC", "measurement.name": "IC50", "experimental.value": "≥ 10 µM"}
